Biological target: mouse ENT-1 transporter (Mus musculus (Mouse), UniProt Q9JIM1)
Sequence (Q9JIM1 whole entry): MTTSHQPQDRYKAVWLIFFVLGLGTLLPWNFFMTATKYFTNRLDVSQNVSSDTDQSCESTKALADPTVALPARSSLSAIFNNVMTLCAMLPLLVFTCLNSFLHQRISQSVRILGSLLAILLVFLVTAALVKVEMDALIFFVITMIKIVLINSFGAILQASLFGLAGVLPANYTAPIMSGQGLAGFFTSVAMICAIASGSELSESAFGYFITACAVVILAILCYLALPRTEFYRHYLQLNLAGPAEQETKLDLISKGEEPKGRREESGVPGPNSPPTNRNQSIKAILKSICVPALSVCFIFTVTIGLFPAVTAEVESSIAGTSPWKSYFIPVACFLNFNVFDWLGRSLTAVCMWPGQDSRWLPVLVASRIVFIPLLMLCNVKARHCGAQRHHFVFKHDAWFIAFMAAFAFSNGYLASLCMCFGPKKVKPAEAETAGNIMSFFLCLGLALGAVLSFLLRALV
Test: Determination of adenosine transport activity (ENT1, [3H]-adenosine uptake)
Format: cell-based
Settings: stable cells expressing mouse ENT-1; [2,8-3H]-adenosine 6 nM, 20 min
Experimental Endpoint: log10 of IC50 (log10 of the value in nM)
Response schema: value (number) is log10 of IC50 in units of nM.

Here's what some known entries look like.
Smiles Representation: Cc1ncc(-c2ccc3c(c2)N(c2cncc(S(N)(=O)=O)c2)C(=O)C3(C)C)cn1
log10 of IC50: 2.11

Smiles Representation: Cc1ncc(-c2ccc3c(c2)N(c2cncc(S(C)(=O)=O)n2)C(=O)C3(C)C)cn1
log10 of IC50: 1.60

Smiles Representation: Cc1ncc(-c2ccc3c(c2)N(c2cccc(S(C)(=O)=O)c2)C(=O)C3(C)C)cn1
log10 of IC50: 2.03

Smiles Representation: Cc1ncc(-c2ccc3c(c2)N(c2cncc(S(=O)(=O)C(C)C)c2)C(=O)C3(C)C)cn1
log10 of IC50: 2.13

Smiles Representation: Cc1ncc(-c2ccc3c(c2)N(c2ccc(S(C)(=O)=O)cn2)C(=O)C3(C)C)cn1
log10 of IC50: 2.20

// each compound listed below needs its log10 of IC50
1. CNS(=O)(=O)c1cncc(N2C(=O)C(C)(C)c3ccc(-c4cnc(C)nc4)cc32)c1
2. Cc1ncc(-c2ccc3c(c2)N(c2cncc(S(=O)(=O)C4CC4)c2)C(=O)C3(C)C)cn1
3. Cc1ncc(-c2ccc3c(c2)N(c2cncc(S(=O)(=O)N(C)C)c2)C(=O)C3(C)C)cn1
4. Cc1ncc(-c2ccc3c(c2)N(c2cncc(S(C)(=O)=O)c2)C(=O)C32CCC2)cn1
5. Cc1ncc(-c2ccc3c(c2)N(c2cncc(S(=O)(=O)N4CCC4)c2)C(=O)C3(C)C)cn1
6. Cc1cncc(-c2ccc3c(c2)N(c2cncc(S(C)(=O)=O)c2)C(=O)C3(C)C)c1
7. Cc1ncc(-c2ccc3c(c2)N(c2cncc(S(C)(=O)=O)c2)C(=O)C3(C)C)cc1F
8. Cc1ncc(-c2ccc3c(c2)N(c2cnc(S(C)(=O)=O)cn2)C(=O)C3(C)C)cn1

[1.86, 1.60, 1.65, 2.36, 2.23, 2.50, 1.43, 1.43]

// each compound listed below needs its log10 of IC50
1. Cc1ncc(-c2ccc3c(c2)N(c2ccc4ccsc4c2)C(=O)C3(C)C)cn1
2. COCCN(C)S(=O)(=O)c1cncc(N2C(=O)C(C)(C)c3ccc(-c4cnc(C)nc4)cc32)c1
3. Cc1ncc(-c2ccc3c(c2)N(c2cncc(S(C)(=O)=O)c2)C(=O)C3(C)C)cn1
4. CSc1cncc(N2C(=O)C(C)(C)c3ccc(-c4cnc(C)nc4)cc32)c1
5. Cc1ncc(-c2ccc3c(c2)N(c2cccc4sccc24)C(=O)C3(C)C)cn1

1: 2.28; 2: 1.90; 3: 1.51; 4: 2.34; 5: 2.93

Hi! What's the reported log10 of IC50 for Cc1ncc(-c2ccc3c(c2)N(c2cnc(C4CC4)c(S(C)(=O)=O)c2)C(=O)C3(C)C)cn1 on mouse ENT-1 transporter (Mus musculus (Mouse), UniProt Q9JIM1)?
1.59
